Source: ChEMBL document CHEMBL1201862

# System: SF-539
# assay.summary: NCI tumour cell line growth inhibition, 48 h
Active and inactive are the calls of the source. Cut-off read from the data, not from the text of the source: active = GI50 up to about 1.1 µM and inactive = higher.
For each of the compounds below, state its GI50.

compound	system.under.test	GI50
COc1ccc(-c2cc(O)c3ccc(F)cc3n2)cc1	SF-539	> 100 µM (inactive)
COP(=O)(OC)C(NC=O)P(=O)(OC)OC	SF-539	> 100 µM (inactive)
COC(=O)c1cc2c3c(c1)Oc1cc(C(=O)OC)cc4c1C3c1c(cc(C(=O)OC)cc1O4)O2	SF-539	15.1 µM (inactive)
CC(C)(C)[C@H]1CC[C@@](O)(c2ccccc2)CC1.CC(C)(C)[C@H]1CC[C@](O)(c2ccccc2)CC1	SF-539	18.1 µM (inactive)
C=C1C(=O)[C@@]23CC[C@@H]4[C@@]5(C)CCC[C@@]4(OC5=O)C2(C)CC[C@]1(OC)C3 (stereo not given in full)	SF-539	1.57 µM (inactive)

List the reported GI50 of each compound below.
1. O=P(NC12CC3CC(CC(C3)C1)C2)(N1CC1)N1CC1
2. Cc1cnc2c(c1)C(=O)N(c1ccc(Br)cc1)S2(=O)=O
3. C=CC1(C)CCC2C(=CCC3C2(C)CC(O)C(O)C3(C)COC2OC(CO)C(O)C(O)C2O)C1 (stereo not given)
4. CCOC(=O)[C@@H](Cc1ccc(CCl)cc1)NC(C)=O
5. O=P1(N(CCCl)CCCl)Oc2ccc(Cl)cc2Sc2c(ccc(Cl)c2Cl)O1 (stereo not given)

**A:**
1: 15.9 µM (inactive); 2: > 100 µM (inactive); 3: > 100 µM (inactive); 4: 18.3 µM (inactive); 5: 23.3 µM (inactive)
